# Tested on: HCV replicon 1B
# ASSAY_METHOD_TEXT: Cell-based HCV Replicon Assay B, replicon 1B
# SETUP_CONDITIONS: Hepatitis C virus
ASSAY_METRIC: pIC50
Note on units: pIC50 is unitless, being -log10 of a concentration expressed in mol/L.

Example compounds with recorded pIC50:
>>> experimental_value("COC(=O)N[C@H](C(=O)N1CCC[C@H]1c1ncc(-c2cc(F)c3c(c2)OC(c2cnc(C4CCCCC4)s2)n2c-3cc3cc(-c4cnc([C@@H]5CCCN5C(=O)[C@@H](NC(=O)OC)C(C)C)[nH]4)ccc32)[nH]1)C(C)C (stereo partly shown) [Compound 527]")
11.54
>>> experimental_value("COC(=O)N[C@H](C(=O)N1CCC[C@H]1c1ncc(-c2cc(F)c3c(c2)OC(c2cnc(-c4ccc(Cl)cc4)s2)n2c-3cc3cc(-c4cnc([C@@H]5CCCN5C(=O)[C@@H](NC(=O)OC)C(C)C)[nH]4)ccc32)[nH]1)C(C)C (single isomer, unassigned) [Compound 53]")
12.00
>>> experimental_value("COC(=O)N[C@H](C(=O)N1CCC[C@H]1c1ncc(-c2cc(F)c3c(c2)OC(c2cnc(Oc4ccc(F)cc4)s2)n2c-3cc3cc(-c4cnc([C@@H]5CCCN5C(=O)[C@@H](NC(=O)OC)C(C)C)[nH]4)ccc32)[nH]1)C(C)C (single isomer, unassigned) [Compound 49]")
11.70

Next:
# value lookup — system HCV replicon 1B, readout pIC50, item CCc1ncc(C2Oc3cc(-c4cnc([C@@H]5CCCN5C(=O)[C@@H](NC(=O)OC)C(C)C)[nH]4)cc(F)c3-c3cc4cc(-c5cnc([C@@H]6C[C@H]7C[C@H]7N6C(=O)[C@@H](CC(=O)OC)C(C)C)[nH]5)ccc4n32)s1 (single isomer, unassigned) [Compound 83]
11.52

====

// values below are reported IC50
# System: HCV replicon 1AY93H
# ASSAY_METHOD_TEXT: Cell-based HCV Replicon Assay A, replicon 1AY93H
# SETUP_CONDITIONS: read-out: 1A Y93H IC50, replicon 1AY93H
Respond with the bare value in nM.

>>> experimental_value("CCCc1ncc(C2Oc3cc(-c4cnc([C@@H]5CCCN5C(=O)[C@@H](NC(=O)OC)C(C)C)[nH]4)cc(F)c3-c3cc4cc(-c5cnc([C@@H]6CCCN6C(=O)C(NC(=O)OC)C6CCOC(C)(C)C6)[nH]5)ccc4n32)s1 (single isomer, unassigned) [Compound 61]")
0.012
>>> experimental_value("COC(=O)NC(C(=O)N1[C@@H]2C[C@@H]2C[C@H]1c1ncc(-c2ccc3c(c2)cc2n3C(c3cnc(C4(C)CCCC4)s3)Oc3cc(-c4cnc([C@@H]5CCCN5C(=O)[C@@H](NC(=O)OC)C(C)C)[nH]4)cc(F)c3-2)[nH]1)C1CCOC(C)(C)C1 (single isomer, unassigned) [Compound 476]")
0.316

Which measured IC50 value corresponds to COC(=O)NC(C(=O)N1CCC[C@H]1c1ncc(-c2ccc3c(c2)cc2n3C(c3cnc(C(C)C)s3)Oc3cc(-c4cnc([C@@H]5CCCN5C(=O)[C@@H](NC(=O)OC)C(C)C)[nH]4)cc(F)c3-2)[nH]1)C1C[C@@H](C)O[C@@H](C)C1 (single isomer, unassigned) [Compound 56] ?
0.285

Which IC50 is reported for this molecule? COC(=O)N[C@H](C(=O)N1CCC[C@H]1c1ncc(-c2cc(F)c3c(c2)OC(c2cnc(OC)s2)n2c-3cc3cc(-c4cnc([C@@H]5CCCN5C(=O)[C@@H](NC(=O)OC)C(C)C)[nH]4)ccc32)[nH]1)C(C)C (single isomer, unassigned) [Compound 13]
0.621

====

# Test system: HCV replicon 1AY93H
# ASSAY_METHOD_TEXT: Cell-based HCV Replicon Assay A, replicon 1AY93H
# SETUP_CONDITIONS: read-out: 1A Y93H IC50, replicon 1AY93H
ASSAY_METRIC: pIC50
Note on units: pIC50 is unitless, being -log10 of a concentration expressed in mol/L.

Known pIC50 results, listed for orientation:
>>> experimental_value("COC(=O)NC(C(=O)N1CCC[C@H]1c1ncc(-c2ccc3c(c2)cc2n3C(c3nc(C(F)(F)F)cs3)Oc3cc(-c4cnc([C@@H]5CCCN5C(=O)[C@@H](NC(=O)OC)C(C)C)[nH]4)cc(F)c3-2)[nH]1)C1C[C@@H](C)O[C@@H](C)C1 (single isomer, unassigned) [Compound 76]")
10.49
>>> experimental_value("COC(=O)N[C@H](C(=O)N1CCC[C@H]1c1ncc(-c2cc(F)c3c(c2)OC(c2cnc(-c4ccc(OC(F)(F)F)cc4)s2)n2c-3cc3cc(-c4cnc([C@@H]5CCCN5C(=O)[C@@H](NC(=O)OC)C(C)C)[nH]4)ccc32)[nH]1)C(C)C (single isomer, unassigned) [Compound 77]")
11.25

# input for lookup
Quick one: pIC50 for COC(=O)NC(C(=O)N1CCC[C@H]1c1ncc(-c2ccc3c(c2)cc2n3C(c3cnc(C4(C)CCCC4)s3)Oc3cc(-c4cnc([C@@H]5CCCN5C(=O)[C@@H](NC(=O)OC)C(C)C)[nH]4)cc(F)c3-2)[nH]1)C1C[C@@H](C)O[C@@H](C)C1 (single isomer, unassigned) [Compound 469] ?
11.70

====

# Test system: HCV replicon 1AQ30D
# ASSAY_METHOD_TEXT: Cell-based HCV Replicon Assay B, replicon 1AQ30D
# SETUP_CONDITIONS: Hepatitis C virus, read-out: 1A Q30D IC50 (nM), replicon 1AQ30D
Recorded IC50, one value per entry.

Example entries begin here.
>>> experimental_value("COC(=O)NC(C(=O)N1[C@@H]2C[C@@H]2C[C@H]1c1ncc(-c2ccc3c(c2)cc2n3C(c3ncc(C4CC4)s3)Oc3cc(-c4cnc([C@@H]5CCCN5C(=O)[C@@H](NC(=O)OC)C(C)C)[nH]4)cc(F)c3-2)[nH]1)C1C[C@@H](C)O[C@@H](C)C1 (single isomer, unassigned)")
"0.095 nM"
>>> experimental_value("COC(=O)NC(C(=O)N1CCC[C@H]1c1ncc(-c2ccc3c(c2)cc2n3C(c3cnc(C4(C)CCCC4)s3)Oc3cc(-c4cnc([C@@H]5CCCN5C(=O)[C@@H](NC(=O)OC)C(C)C)[nH]4)cc(F)c3-2)[nH]1)C1C[C@@H](C)O[C@@H](C)C1 (single isomer, unassigned)")
"0.019 nM"
>>> experimental_value("COCc1ncc(C2Oc3cc(-c4cnc([C@@H]5CCCN5C(=O)[C@@H](NC(=O)OC)C(C)C)[nH]4)cc(F)c3-c3cc4cc(-c5cnc([C@@H]6CCCN6C(=O)[C@@H](NC(=O)OC)C(C)C)[nH]5)ccc4n32)s1 (single isomer, unassigned)")
"0.072 nM"

Let's switch to this compound now.
Recorded IC50 of COC(=O)N[C@H](C(=O)N1CCC[C@H]1c1ncc(-c2cc(F)c3c(c2)OC(c2cnc(-c4ccccn4)s2)n2c-3cc3cc(-c4cnc([C@@H]5CCCN5C(=O)[C@@H](NC(=O)OC)C(C)C)[nH]4)ccc32)[nH]1)C(C)C (mixture of isomers) , please.
0.482 nM

====

# System: HCV replicon 1AY93H
# ASSAY_METHOD_TEXT: Cell-based HCV Replicon Assay A, replicon 1AY93H
# SETUP_CONDITIONS: read-out: 1A Y93H IC50, replicon 1AY93H
# Experimental: To measure cell-based anti-HCV activity of compounds of the present invention, two complimentary assays were employed using various replicons. […] The replicon RNA level was measured using real time PCR (TaqMan® EZ RT-PCR, Applied Biosystems 403028) with the following primers and probes: […] The amount of HCV replicon RNA per cell is quantified using a linear regression curve for a known nanogram (ng) amount of HCV replicon total RNA. […]
ASSAY_METRIC: pIC50
Here pIC50 is given on a logarithmic scale as minus log10 of the concentration in mol/L.

>>> experimental_value("COC(=O)NC(C(=O)N1CCC[C@H]1c1ncc(-c2ccc3c(c2)cc2n3C(c3cnc(CC(C)C)s3)Oc3cc(-c4cnc([C@@H]5CCCN5C(=O)[C@@H](NC(=O)OC)C(C)C)[nH]4)cc(F)c3-2)[nH]1)C1CCOC(C)(C)C1 (single isomer, unassigned) [Compound 543]")
9.78
>>> experimental_value("COC(=O)N[C@H](C(=O)N1CCC[C@H]1c1ncc(-c2cc(F)c3c(c2)OC(c2nc4c(s2)CCC4)n2c-3cc3cc(-c4cnc([C@@H]5CCCN5C(=O)[C@@H](NC(=O)OC)C(C)C)[nH]4)ccc32)[nH]1)C(C)C (single isomer, unassigned) [Compound 504]")
8.78
>>> experimental_value("COC(=O)N[C@H](C(=O)N1CCC[C@H]1c1ncc(-c2cc(F)c3c(c2)OC(c2ncc(C4CC4)s2)n2c-3cc3cc(-c4cnc([C@@H]5CCCN5C(=O)[C@@H](NC(=O)OC)C(C)C)[nH]4)ccc32)[nH]1)C(C)C (single isomer, unassigned) [Compound 7]")
8.37

Lab note: next compound to report on.
Field request: pIC50 | item: COC(=O)NC(C(=O)N1CCC[C@H]1c1ncc(-c2ccc3c(c2)cc2n3C(c3cnc(C4(C)CC4)s3)Oc3cc(-c4cnc([C@@H]5CCCN5C(=O)[C@@H](NC(=O)OC)C(C)C)[nH]4)cc(F)c3-2)[nH]1)C1C[C@@H](C)O[C@@H](C)C1 (single isomer, unassigned) [Compound 461]
9.49
